remaining target (mRNA or protein) (fraction of control) overview
Target: CHEK2
Settings: ASO; also: test concentration or dose not given here
These antisense oligonucleotides have a phosphorothioate backbone; sugars and methylation of C are not fully specified.
REPORTED_METRIC: remaining target (mRNA or protein) (fraction of control)

- MACROMOLECULE_SEQUENCE: "AAGGGCCCATAATCGAGCCC"
  CENSORING_QUALIFIER: "="
  TEST_VALUE: 0.78
- MACROMOLECULE_SEQUENCE: "CCATCAATTCCAAAACAATA"
  CENSORING_QUALIFIER: "≥"
  TEST_VALUE: 1
- MACROMOLECULE_SEQUENCE: "CCATTGCCACTGTGATCTTC"
  CENSORING_QUALIFIER: "="
  TEST_VALUE: 0.46
- MACROMOLECULE_SEQUENCE: "TCCTTTTGCTGATGATCTTT"
  CENSORING_QUALIFIER: "="
  TEST_VALUE: 0.57
- MACROMOLECULE_SEQUENCE: "GAAGCCACGGGTGTCTTAAG"
  CENSORING_QUALIFIER: "="
  TEST_VALUE: 0.86
- MACROMOLECULE_SEQUENCE: "TTTGTGGTCTCGGCACCCTC"
  CENSORING_QUALIFIER: "="
  TEST_VALUE: 0.77
- MACROMOLECULE_SEQUENCE: "CATGAGAGAGGTCTCTCCCA"
  CENSORING_QUALIFIER: "="
  TEST_VALUE: 0.85
- MACROMOLECULE_SEQUENCE: "CGTGCTGGTAGAGGAGCTGG"
  CENSORING_QUALIFIER: "="
  TEST_VALUE: 0.77
- MACROMOLECULE_SEQUENCE: "CTTGGGACTGGGTAACGCTG"
  CENSORING_QUALIFIER: "="
  TEST_VALUE: 0.93
- MACROMOLECULE_SEQUENCE: "TGTTCAAACCACGGAGTTCA"
  CENSORING_QUALIFIER: "="
  TEST_VALUE: 0.62
- MACROMOLECULE_SEQUENCE: "TCAGTGACACTTGAGTCCTA"
  CENSORING_QUALIFIER: "="
  TEST_VALUE: 0.87
- MACROMOLECULE_SEQUENCE: "TATTCCATAATTAAATCCAA"
  CENSORING_QUALIFIER: "≥"
  TEST_VALUE: 1
- MACROMOLECULE_SEQUENCE: "TTTTAATCTTGATGATGCAA"
  CENSORING_QUALIFIER: "="
  TEST_VALUE: 0.71
- MACROMOLECULE_SEQUENCE: "GTACTGCACAGCCAAGAGCA"
  CENSORING_QUALIFIER: "="
  TEST_VALUE: 0.79
- MACROMOLECULE_SEQUENCE: "TTCTCTGAGACTTCTGCCCA"
  CENSORING_QUALIFIER: "="
  TEST_VALUE: 0.49
- MACROMOLECULE_SEQUENCE: "CTCTCGAAAGCCAGCTTTAC"
  CENSORING_QUALIFIER: "="
  TEST_VALUE: 0.31
- MACROMOLECULE_SEQUENCE: "TTTATTCCCCACCACTTTGT"
  CENSORING_QUALIFIER: "="
  TEST_VALUE: 0.38
- MACROMOLECULE_SEQUENCE: "ATTCTCTGGCTTTAAGTCAC"
  CENSORING_QUALIFIER: "="
  TEST_VALUE: 0.63
- MACROMOLECULE_SEQUENCE: "AAACTTTCTCTTCATGTCTT"
  CENSORING_QUALIFIER: "≥"
  TEST_VALUE: 1
- MACROMOLECULE_SEQUENCE: "GAGAGCTGGGTCTGCCTCTC"
  CENSORING_QUALIFIER: "="
  TEST_VALUE: 0.73
- MACROMOLECULE_SEQUENCE: "GTAGAGCTGTGGATTCATTT"
  CENSORING_QUALIFIER: "="
  TEST_VALUE: 0.67
- MACROMOLECULE_SEQUENCE: "CCACGGAGTTCACAACACAG"
  CENSORING_QUALIFIER: "="
  TEST_VALUE: 0.74
- MACROMOLECULE_SEQUENCE: "CAGTAGTTGTCATTCACACA"
  CENSORING_QUALIFIER: "="
  TEST_VALUE: 0.49
- MACROMOLECULE_SEQUENCE: "AATCCGAAAGTGTTTCTTGC"
  CENSORING_QUALIFIER: "≥"
  TEST_VALUE: 1
- MACROMOLECULE_SEQUENCE: "AACATCCGACTCCCGAGACA"
  CENSORING_QUALIFIER: "="
  TEST_VALUE: 0.65
- MACROMOLECULE_SEQUENCE: "TAATCTTTATAAGACAGTCC"
  CENSORING_QUALIFIER: "="
  TEST_VALUE: 0.88
- MACROMOLECULE_SEQUENCE: "GACTTCAGGAATGAAGTTGT"
  CENSORING_QUALIFIER: "≥"
  TEST_VALUE: 1
- MACROMOLECULE_SEQUENCE: "AGCAGTCCCAACAGAAACAA"
  CENSORING_QUALIFIER: "="
  TEST_VALUE: 0.95
- MACROMOLECULE_SEQUENCE: "GACGGCGTTTTCCTTTCCCT"
  CENSORING_QUALIFIER: "="
  TEST_VALUE: 0.49
- MACROMOLECULE_SEQUENCE: "AGGAATAGAATAGAGTTCCT"
  CENSORING_QUALIFIER: "≥"
  TEST_VALUE: 1
- MACROMOLECULE_SEQUENCE: "TATTCATCTCTTAATGCCTT"
  CENSORING_QUALIFIER: "="
  TEST_VALUE: 0.61
- MACROMOLECULE_SEQUENCE: "CAGTGTCCCAGAGCTGGAGT"
  CENSORING_QUALIFIER: "≥"
  TEST_VALUE: 1
- MACROMOLECULE_SEQUENCE: "AGAATAACTCCTAAACTCCA"
  CENSORING_QUALIFIER: "="
  TEST_VALUE: 0.82
- MACROMOLECULE_SEQUENCE: "CAGAGTGAAAGAAGGACATT"
  CENSORING_QUALIFIER: "≥"
  TEST_VALUE: 1
- MACROMOLECULE_SEQUENCE: "TCAGCAGTGGTTCATCAAAG"
  CENSORING_QUALIFIER: "="
  TEST_VALUE: 0.63
- MACROMOLECULE_SEQUENCE: "ATTTCTGCTTAGTGACAGTG"
  CENSORING_QUALIFIER: "="
  TEST_VALUE: 0.65

###

Molecular target: NCOA1
Conditions: ASO
These antisense oligonucleotides have a phosphorothioate backbone; sugars and methylation of C are not fully specified.
REPORTED_METRIC: remaining target (mRNA or protein) (fraction of control)

- MACROMOLECULE_SEQUENCE: "CATGATGATGAAGCCGAA"
  CENSORING_QUALIFIER: "="
  TEST_VALUE: 0.7
- MACROMOLECULE_SEQUENCE: "CTGAGGACTGGAGAACTG"
  CENSORING_QUALIFIER: "="
  TEST_VALUE: 0.44
- MACROMOLECULE_SEQUENCE: "TCCCCGTTTGAACTGGTA"
  CENSORING_QUALIFIER: "="
  TEST_VALUE: 0.63
- MACROMOLECULE_SEQUENCE: "CTGAAAGTCTGTCATTGT"
  CENSORING_QUALIFIER: "="
  TEST_VALUE: 0.95
- MACROMOLECULE_SEQUENCE: "CCTTTAAAAGTGGTTATT"
  CENSORING_QUALIFIER: "≥"
  TEST_VALUE: 1
- MACROMOLECULE_SEQUENCE: "CTTCCTCACTAAATCTTC"
  CENSORING_QUALIFIER: "≥"
  TEST_VALUE: 1
- MACROMOLECULE_SEQUENCE: "CTACGACCTGAAGAATGG"
  CENSORING_QUALIFIER: "="
  TEST_VALUE: 0.76
- MACROMOLECULE_SEQUENCE: "CGAATTCCACCACACTGG"
  CENSORING_QUALIFIER: "="
  TEST_VALUE: 0.69
- MACROMOLECULE_SEQUENCE: "TGGTTATTCAGTCAGTAG"
  CENSORING_QUALIFIER: "="
  TEST_VALUE: 0.71
- MACROMOLECULE_SEQUENCE: "TCCATCTGTTCTTTCTTT"
  CENSORING_QUALIFIER: "="
  TEST_VALUE: 0.84
- MACROMOLECULE_SEQUENCE: "CCTTGACTACTTGATGAG"
  CENSORING_QUALIFIER: "="
  TEST_VALUE: 0.77
- MACROMOLECULE_SEQUENCE: "TCCTTTAAAAGTGGTTAT"
  CENSORING_QUALIFIER: "="
  TEST_VALUE: 0.93
- MACROMOLECULE_SEQUENCE: "TTCCTTTAAAAGTGGTTA"
  CENSORING_QUALIFIER: "="
  TEST_VALUE: 0.71
- MACROMOLECULE_SEQUENCE: "ATGCCAACAGGAGCAGTT"
  CENSORING_QUALIFIER: "="
  TEST_VALUE: 0.51
- MACROMOLECULE_SEQUENCE: "ACCTCCTGAAGAGTTAGC"
  CENSORING_QUALIFIER: "="
  TEST_VALUE: 0.58
- MACROMOLECULE_SEQUENCE: "AAAAGTGGTTATTCAGTC"
  CENSORING_QUALIFIER: "="
  TEST_VALUE: 0.62
- MACROMOLECULE_SEQUENCE: "GGTTATTCAGTCAGTAGC"
  CENSORING_QUALIFIER: "="
  TEST_VALUE: 0.57
- MACROMOLECULE_SEQUENCE: "AGCTGTCAATGTCACTAA"
  CENSORING_QUALIFIER: "="
  TEST_VALUE: 0.43
- MACROMOLECULE_SEQUENCE: "GGATTGACCGAGGGATTT"
  CENSORING_QUALIFIER: "="
  TEST_VALUE: 0.52
- MACROMOLECULE_SEQUENCE: "GTTCATTCCTGGCATCTG"
  CENSORING_QUALIFIER: "="
  TEST_VALUE: 0.66
- MACROMOLECULE_SEQUENCE: "CTTTAAAAGTGGTTATTC"
  CENSORING_QUALIFIER: "≥"
  TEST_VALUE: 1
- MACROMOLECULE_SEQUENCE: "GAGCTAATACACTGGTCT"
  CENSORING_QUALIFIER: "="
  TEST_VALUE: 0.55
- MACROMOLECULE_SEQUENCE: "GGTCTGAGCTCTGCTGGC"
  CENSORING_QUALIFIER: "="
  TEST_VALUE: 0.24
- MACROMOLECULE_SEQUENCE: "TTAGCAGGGTCGGATGAA"
  CENSORING_QUALIFIER: "="
  TEST_VALUE: 0.4
- MACROMOLECULE_SEQUENCE: "AAGTGGTTATTCAGTCAG"
  CENSORING_QUALIFIER: "="
  TEST_VALUE: 0.74
- MACROMOLECULE_SEQUENCE: "GCGTTGCTTGTTGTGGTG"
  CENSORING_QUALIFIER: "="
  TEST_VALUE: 0.43
- MACROMOLECULE_SEQUENCE: "CTCTTGTTCCATTCTCTT"
  CENSORING_QUALIFIER: "="
  TEST_VALUE: 0.61
- MACROMOLECULE_SEQUENCE: "AAAGTGGTTATTCAGTCA"
  CENSORING_QUALIFIER: "="
  TEST_VALUE: 0.71
- MACROMOLECULE_SEQUENCE: "GTCCCCGCCTACCAGATT"
  CENSORING_QUALIFIER: "="
  TEST_VALUE: 0.56
- MACROMOLECULE_SEQUENCE: "TAAAAGTGGTTATTCAGT"
  CENSORING_QUALIFIER: "="
  TEST_VALUE: 0.79
- MACROMOLECULE_SEQUENCE: "TCATTAATTCCTCCTGAT"
  CENSORING_QUALIFIER: "="
  TEST_VALUE: 0.48
- MACROMOLECULE_SEQUENCE: "TTAAAAGTGGTTATTCAG"
  CENSORING_QUALIFIER: "="
  TEST_VALUE: 0.79
- MACROMOLECULE_SEQUENCE: "TGCTTGGTCATAAAGGAT"
  CENSORING_QUALIFIER: "="
  TEST_VALUE: 0.74
- MACROMOLECULE_SEQUENCE: "AGTGGTTATTCAGTCAGT"
  CENSORING_QUALIFIER: "="
  TEST_VALUE: 0.67
- MACROMOLECULE_SEQUENCE: "ATGATGATGAAGCCGAAT"
  CENSORING_QUALIFIER: "="
  TEST_VALUE: 0.93
